- assayed-system: Orexin/Hypocretin receptor type 1 (Homo sapiens) (UniProt O43613)
- Sequence (O43613 whole entry, looked up): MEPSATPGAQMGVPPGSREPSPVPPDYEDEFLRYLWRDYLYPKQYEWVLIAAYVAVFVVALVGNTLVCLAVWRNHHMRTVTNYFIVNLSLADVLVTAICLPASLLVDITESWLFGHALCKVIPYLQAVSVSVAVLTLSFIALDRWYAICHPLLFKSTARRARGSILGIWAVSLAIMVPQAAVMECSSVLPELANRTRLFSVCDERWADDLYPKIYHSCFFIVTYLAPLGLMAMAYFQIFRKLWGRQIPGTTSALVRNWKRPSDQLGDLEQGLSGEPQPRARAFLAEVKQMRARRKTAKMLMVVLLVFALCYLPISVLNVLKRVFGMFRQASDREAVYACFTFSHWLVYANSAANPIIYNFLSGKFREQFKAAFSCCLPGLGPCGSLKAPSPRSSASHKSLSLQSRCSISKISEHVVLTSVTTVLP
- assay-comment: antagonists of human orexin 1 receptor (OX1R) (AID 485270);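 also: 0% = agonist challenge alone and 100% = reference antagonist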
- experimental-conditions: OX1R-expressing cells, FRET antagonist read-out; at 6.6 µM; active compounds read high
In all, about 330,000 compounds went through this assay and about 5,800 (1.8%) were called active. Many of the other results were omitted from the sample, so actives are more common in it than they were.
test-readout: inhibition (%)
Just the number in %, nothing appended.

Use these answered entries as a reference point.
{"columns": ["compound", "inhibition (%)"],
 "data": [
  ["O=C(c1ccco1)N1CCN(C(=O)C2c3ccccc3Oc3ccccc32)CC1", -0.85],
  ["CC(C)c1nnc(NC(=O)C2CCCN2S(=O)(=O)c2ccc(Cl)cc2)s1 (centres undefined)", 39.3],
  ["COc1ccc(CNC(=O)COC(=O)C(CCSC)N2C(=O)c3ccccc3C2=O)cc1 (centres undefined)", 9.55],
  ["O=C(NCc1ccco1)C1CCCN(S(=O)(=O)c2ccccc2)C1 (centres undefined)", 22.4],
  ["CCOc1ccccc1OCC(=O)Nc1ccccc1C(=O)NC1CC1", 9.29],
  ["C[C@]12CC[C@H](O)CC1=CCC1C2CC[C@@]2(C)C1CC[C@@H]2NC(=O)CCC(=O)O (some centres undefined)", 4.74]
]}

// next item, inhibition requested
IN: Recall and state the measured inhibition for Cc1cc(CO)nn1-c1ccc([N+](=O)[O-])cc1 .
OUT: 46.5
